molecular target: HCV NS3 protease domain (Hepatitis C virus genotype 1b, UniProt Q9WMX2); construct: The first 181 amino acids of NS3 (residues 1027-1207 of the viral polyprotein); hexa-histidine (C); made in house; host or cells: E. coli BL21/DE3 pLysS; experiment: biochemical; details: Enzyme Assay 1 (HCV NS3 Protease Domain Peptide Cleavage Assay) activity, apparent Ki class
Sequence (Q9WMX2 1027-1207, other chains not shown): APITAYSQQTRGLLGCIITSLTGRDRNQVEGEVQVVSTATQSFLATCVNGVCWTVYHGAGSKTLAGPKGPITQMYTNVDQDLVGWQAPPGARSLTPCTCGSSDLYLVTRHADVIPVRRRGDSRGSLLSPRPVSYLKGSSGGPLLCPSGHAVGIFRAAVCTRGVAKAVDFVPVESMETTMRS
pKi: −log10 of the molar value.
I'd be grateful if you could share measured pKi for these entries.

Record pKi for all entries; do not skip any.
1. CCC[C@H](NC(=O)[C@@H]1C[C@]2(CC(c3ccc4c(c3)CCC(C)(C)O4)=NO2)CN1C(=O)[C@@H](NC(=O)O[C@H]1CCOC1)C(C)(C)C)C(=O)C(=O)NC1CC1
2. CCC[C@H](NC(=O)[C@@H]1C[C@]2(CC(c3cccc(Cl)c3)=NO2)CN1C(=O)CCn1c(=O)oc2ccccc21)C(=O)C(=O)NC1CC1
3. CCC[C@H](NC(=O)[C@@H]1C[C@]2(CC(c3cccc(Cl)c3)=NO2)CN1C(=O)[C@@H](NC(=O)CCc1ccc(F)cc1)C(C)(C)C)C(=O)C(=O)NC1CC1
4. CCC[C@H](NC(=O)[C@@H]1C[C@]2(CC(c3cccc(Cl)c3)=NO2)CN1C(=O)[C@@H](NC(=O)OCC1CCC1)C(C)(C)C)C(=O)C(=O)NC1CC1

Solution:
1: 6.30 to 7.00; 2: < 6.30; 3: < 6.30; 4: 6.30 to 7.00

Record pKi for all entries; do not skip any.
1. CNC(=O)C(=O)C(CC1CCC1)NC(=O)[C@@H]1C[C@]2(CC(c3cccc(Cl)c3)=NO2)CN1C(=O)[C@@H](NC(=O)CC1CCOC(C)(C)C1)C(C)(C)C (stereo partly drawn)
2. CCC[C@H](NC(=O)[C@@H]1C[C@]2(CC(c3cccc(Cl)c3)=NO2)CN1C(=O)[C@@H](NC(=O)Nc1cccnc1)C(C)(C)C)C(=O)C(=O)NC1CC1
3. CCC[C@H](NC(=O)[C@@H]1C[C@]2(CC(c3cccc(Cl)c3)=NO2)CN1C(=O)[C@@H](NC(=O)CC1CCCCC1)C(C)(C)C)C(=O)C(=O)NCCc1ccc2c(c1)OCO2
4. CCC[C@H](NC(=O)[C@@H]1C[C@]2(CC(c3cccc(Cl)c3)=NO2)CN1C(=O)[C@@H](NC(=O)CCC1CCCCC1)C(C)(C)C)C(=O)C(=O)NC1CC1
5. CCC[C@H](NC(=O)[C@@H]1C[C@]2(CC(c3cccc(Cl)c3)=NO2)CN1C(=O)CCNS(=O)(=O)c1ccc(NC(C)=O)cc1)C(=O)C(=O)NC1CC1

Solution:
1. 6.30 to 7.00
2. 6.30 to 7.00
3. 6.30 to 7.00
4. 6.30 to 7.00
5. < 6.30

Record pKi for all entries; do not skip any.
1. CCC[C@H](NC(=O)[C@@H]1C[C@]2(CC(c3ccc(OC(F)(F)F)cc3)=NO2)CN1C(=O)O[C@H]1CCOC1)C(=O)C(=O)NC1CC1
2. CCC[C@H](NC(=O)[C@@H]1C[C@]2(CC(c3cccc(Cl)c3)=NO2)CN1C(=O)[C@@H](NC(=O)CC1=C(c2cccs2)CCC1=O)C(C)(C)C)C(=O)C(=O)NC1CC1
3. CCC[C@H](NC(=O)[C@@H]1C[C@]2(CC(c3cccc(Cl)c3)=NO2)CN1C(=O)[C@@H](NC(=O)c1cccc([C@@H](C)C#N)c1)C(C)(C)C)C(=O)C(=O)NC1CC1
4. CCC[C@H](NC(=O)[C@@H]1C[C@]2(CC(c3cccc(Cl)c3)=NO2)CN1C(=O)[C@@H](NC(=O)CCC(C)=O)C(C)(C)C)C(=O)C(=O)NC1CC1
5. CCC[C@H](NC(=O)[C@@H]1C[C@]2(CC(c3ccc(F)c(Cl)c3)=NO2)CN1C(=O)[C@@H](NC(=O)CC1CCOCC1)C(C)(C)C)C(=O)C(=O)NC1CC1
6. CCC[C@H](NC(=O)[C@@H]1C[C@]2(CC(c3cccc(Cl)c3)=NO2)CN1C(=O)[C@@H](NC(=O)CC1CCC2(CC1)OCCO2)C(C)(C)C)C(=O)C(=O)NC1CC1
7. CCC[C@H](NC(=O)[C@@H]1C[C@@]2(CC(c3cc(F)c(F)c(F)c3)=NO2)CN1C(=O)[C@@H](NC(=O)O[C@H]1CCOC1)C(C)(C)C)C(=O)C(=O)NC1CC1
8. CCC[C@H](NC(=O)[C@@H]1C[C@]2(CC(c3cccc(Cl)c3)=NO2)CN1C(=O)[C@@H](NC(=O)NC1CCCCC1)C(C)(C)C)C(=O)C(=O)NC1CC1

Solution:
1: < 6.30; 2: 6.30 to 7.00; 3: < 6.30; 4: 6.30 to 7.00; 5: 6.30 to 7.00; 6: 6.30 to 7.00; 7: < 6.30; 8: > 7.00

Record pKi for all entries; do not skip any.
1. CCC[C@H](NC(=O)[C@@H]1C[C@]2(CC(c3cccc(Cl)c3)=NO2)CN1C(=O)[C@@H](NC(=O)CC1CCCCC1)C(C)(C)C)C(=O)C(=O)N[C@H](C)CC
2. CCC[C@H](NC(=O)[C@@H]1C[C@@]2(CC(c3cc(F)cc(C(F)(F)F)c3)=NO2)CN1C(=O)[C@@H](NC(=O)O[C@H]1CCOC1)C(C)(C)C)C(=O)C(=O)NC1CC1
3. CCC[C@H](NC(=O)[C@@H]1C[C@]2(CC(c3cccc(Cl)c3)=NO2)CN1C(=O)[C@@H](NC(=O)CC1CCCCC1)C(C)(C)C)C(=O)C(=O)NC1CC1
4. CCC[C@H](NC(=O)[C@@H]1C[C@]2(CC(c3cccc(Cl)c3)=NO2)CN1C(=O)[C@@H](NC(=O)N1CCC2(CC1)CC(=O)c1ccccc12)C(C)(C)C)C(=O)C(=O)NC1CC1

Solution:
1: < 6.30; 2: < 6.30; 3: 6.30 to 7.00; 4: < 6.30

###

biological target: HCV NS3 protease domain (Hepatitis C virus genotype 1b); construct: The first 181 amino acids of NS3 (residues 1027-1207 of the viral polyprotein); hexa-histidine (C); made in house; host or cells: E. coli BL21/DE3 pLysS; test: biochemical; details: Enzyme Assay 1 (HCV NS3 Protease Domain Peptide Cleavage Assay) activity, apparent Ki class
I'd be grateful if you could share measured Ki for these entries.

CCC[C@H](NC(=O)[C@@H]1C[C@]2(CC(c3cccc(Cl)c3)=NO2)CN1C(=O)[C@@H](NC(=O)OC1CCCOC1)C(C)(C)C)C(=O)C(=O)NC1CC1 (stereo partly drawn) | 100 to 500 nM
CCC[C@H](NC(=O)[C@@H]1C[C@]2(CC(c3cccc(Cl)c3)=NO2)CN1C(=O)c1[nH]c2ccccc2c1CC(=O)N(CC)CC)C(=O)C(=O)NC1CC1 | > 500 nM

Moving on to the next compound.
Exercise: Could you share which Ki value was measured for `CCC[C@H](NC(=O)[C@@H]1C[C@]2(CC(c3cccc(C(=O)O)c3)=NO2)CN1C(=O)[C@@H](NC(=O)O[C@H]1CCOC1)C(C)(C)C)C(=O)C(=O)NC1CC1` ?
Solution: > 500 nM

###

target: HCV NS3 protease domain (Hepatitis C virus genotype 1b); construct: The first 181 amino acids of NS3 (residues 1027-1207 of the viral polyprotein); hexa-histidine (C); made in house; host or cells: E. coli BL21/DE3 pLysS; assay: biochemical; settings: Enzyme Assay 1 (HCV NS3 Protease Domain Peptide Cleavage Assay) activity, apparent Ki class
test.readout: Ki

CCC[C@H](NC(=O)[C@@H]1C[C@]2(CC(c3cccc(Cl)c3)=NO2)CN1C(=O)[C@@H](NC(=O)CC1CCOCC1)C(C)(C)C)C(=O)C(=O)NC1CC1 | 0.1 to 0.5 µM
CCC[C@H](NC(=O)[C@@H]1C[C@]2(CC(c3cccc(Cl)c3)=NO2)CN1C(=O)[C@@H](NC(=O)[C@@H]1CCC(=O)N1Cc1cccc(C)c1)C(C)(C)C)C(=O)C(=O)NC1CC1 | < 0.1 µM

Exercise: Could you share which Ki value was measured for `CCC[C@H](NC(=O)[C@@H]1C[C@]2(CC(c3cccc(Cl)c3)=NO2)CN1C(=O)[C@@H](Nc1ccccc1)C(C)(C)C)C(=O)C(=O)NC1CC1` ?
Solution: > 0.5 µM

###

molecular target: HCV NS3 protease domain (Hepatitis C virus genotype 1b); construct: The first 181 amino acids of NS3 (residues 1027-1207 of the viral polyprotein); hexa-histidine (C); made in house; host or cells: E. coli BL21/DE3 pLysS; test: biochemical; conditions: Enzyme Assay 1 (HCV NS3 Protease Domain Peptide Cleavage Assay) activity, apparent Ki class
test.readout: Ki

CCC[C@H](NC(=O)[C@@H]1C[C@]2(CC(c3cccc(Cl)c3)=NO2)CN1C(=O)CC(NS(=O)(=O)c1ccc(OC)cc1)C(C)C)C(=O)C(=O)NC1CC1 (some centres unmarked) | > 0.5 µM
CCC[C@H](NC(=O)[C@@H]1C[C@]2(CC(c3cccc(Cl)c3)=NO2)CN1C(=O)[C@@H](NC(=O)CC1CCCCC1)C(C)(C)C)C(=O)C(=O)NCC(C)C | 0.1 to 0.5 µM
CCC[C@H](NC(=O)[C@@H]1C[C@]2(CC(c3ccc(OC)cc3OC)=NO2)CN1C(=O)OCC1c2ccccc2-c2ccccc21)C(=O)C(=O)NC1CC1 | 0.1 to 0.5 µM
CCC[C@H](NC(=O)[C@@H]1C[C@]2(CC(c3ccc(F)cc3)=NO2)CN1C(=O)OCC1c2ccccc2-c2ccccc21)C(=O)C(=O)NC1CC1 | > 0.5 µM

Exercise: Could you share which Ki value was measured for CC(C)(C)[C@H](NC(=O)CC1CCCCC1)C(=O)N1C[C@@]2(CC(c3cc(Cl)c4c(c3)CCO4)=NO2)C[C@H]1C(=O)NC(CC1CCC1)C(=O)C(=O)NC1CC1 (some centres unmarked) ?
Solution: < 0.1 µM
